test: chemical genetic growth profiling, strain panel (AID 1159580);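 note: tested at 20 µM; growth read once vehicle control cultures reached saturation at 30 °C; lower values mean less growth of the strain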; conditions: S. cerevisiae deletion strains, growth OD, locus YPR135W, strain CTF4, stronger effect = lower value
In all, about 5,500 compounds went through this assay and about 2,000 (36%) were called active. About 18% were inconclusive and are not listed. This is one part of the list.
Rule: normalized growth below 0.8 gives TRUE. Equal to or above 0.8 gives FALSE.

INSERT INTO results (smilesentry, grouplabel) VALUES
  ('O=c1[nH]c(-c2cc(Br)cs2)nc2ccc(Cl)cc12', 'FALSE'),
  ('Cc1ccc(CSC(=N)N)cc1', 'FALSE'),
  ('O=C(CCN1CCOCC1)c1ccc2c(c1)OCCO2', 'TRUE'),
  ('O=c1[nH]cnc2ccc(Br)cc12', 'FALSE'),
  ('C/C(=N/OC(=O)c1ccc(Cl)cc1)c1ccc(F)cc1', 'TRUE');
